src = patent US9340577B2

Listing: IC50 of selected compounds
tested target: DRB1*1302 (Homo sapiens, UniProt P01903+P01911, A100E/A169T/K41T/L162R/M171V/P40S/Q125H/Q178H/Q39Y/Q99D/R42S/S66N/T262R/V115G/W38E/Y61H)
Sequence (P01903 26-254 limits assumed, other chains not shown): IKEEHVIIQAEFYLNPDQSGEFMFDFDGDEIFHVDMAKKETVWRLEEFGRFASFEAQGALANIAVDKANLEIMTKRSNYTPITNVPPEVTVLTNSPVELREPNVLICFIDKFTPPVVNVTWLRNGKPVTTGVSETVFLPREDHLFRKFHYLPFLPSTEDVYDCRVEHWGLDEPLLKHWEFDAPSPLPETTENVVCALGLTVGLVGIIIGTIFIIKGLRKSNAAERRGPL
run description: biochemical
Assay type: binding

| compound | result comparator | IC50 (nM) |
| --- | --- | --- |
| CC[C@H](C)[C@H](NC(=O)[C@H](Cc1c[nH]cn1)NC(=O)[C@H](C)NC(=O)[C@H](Cc1ccc(O)cc1)NC(=O)[C@H](CC(C)C)NC(=O)[C@@H](NC(=O)[C@H](C)NC(=O)[C@@H]1CCCN1C(=O)[C@H](CCCCN)NC(=O)[C@@H](NC(=O)[C@H](CC(C)C)NC(=O)[C@@H](NC(=O)[C@H](CCCCN)NC(=O)[C@@H](N)Cc1ccccc1)[C@@H](C)O)[C@@H](C)CC)[C@@H](C)O)C(=O)N[C@@H](CCC(N)=O)C(=O)O [Peptide 89.0082] | = | 45 |
| CC(C)[C@H](NC(=O)[C@H](CCC(=O)O)NC(=O)[C@H](Cc1c[nH]c2ccccc12)NC(=O)[C@@H](NC(=O)CNC(=O)[C@@H](NC(=O)[C@H](CC(N)=O)NC(=O)CNC(=O)[C@H](Cc1ccc(O)cc1)NC(=O)[C@H](CCCCN)NC(=O)[C@@H](N)CCC(=O)O)[C@@H](C)O)[C@@H](C)O)C(=O)N[C@@H](Cc1c[nH]cn1)C(=O)N[C@@H](Cc1ccccc1)C(=O)NCC(=O)N[C@@H](CC(N)=O)C(=O)O [Peptide 1601.11] | > | 20000 |
| CSCC[C@H](NC(=O)[C@H](CS)NC(=O)[C@H](CC(N)=O)NC(=O)[C@H](CC(=O)O)NC(=O)[C@H](CCCCN)NC(=O)[C@H](CC(N)=O)NC(=O)CN)C(=O)N[C@H](C(=O)N[C@@H](Cc1ccc(O)cc1)C(=O)N[C@H](C(=O)N[C@@H](C)C(=O)N[C@@H](Cc1c[nH]c2ccccc12)C(=O)N[C@@H](CC(=O)O)C(=O)N[C@@H](CO)C(=O)N[C@H](C(=O)O)C(C)C)C(C)C)[C@@H](C)O [Peptide 1601.09] | > | 20000 |
| CC[C@H](C)[C@H](NC(=O)[C@H](C)NC(=O)[C@H](CCCCN)NC(=O)[C@H](Cc1c[nH]cn1)NC(=O)[C@H](C)NC(=O)[C@H](CCCCN)NC(=O)[C@H](CO)NC(=O)[C@H](CCCCN)NC(=O)[C@H](CO)NC(=O)[C@@H](NC(=O)[C@H](CC(N)=O)NC(=O)[C@H](Cc1ccc(O)cc1)NC(=O)[C@H](C)N)[C@@H](C)CC)C(=O)N[C@@H](CCC(=O)O)C(=O)N[C@@H](CC(C)C)C(=O)O [Peptide 89.0159] | > | 20000 |
| CC[C@H](C)[C@H](NC(=O)[C@H](CCCCN)NC(=O)[C@H](CC(N)=O)NC(=O)[C@@H](NC(=O)[C@@H](NC(=O)[C@H](CC(C)C)NC(=O)[C@@H](NC(=O)[C@H](CO)NC(=O)[C@H](CC(C)C)NC(=O)[C@H](C)N)[C@@H](C)O)C(C)C)C(C)C)C(=O)N[C@@H](CCCNC(=N)N)C(=O)NCC(=O)N[C@H](C(=O)N[C@@H](Cc1ccccc1)C(=O)N[C@@H](CCCCN)C(=O)O)[C@@H](C)O [Peptide F196.09] | = | 7.6 |
